compounds and their reported electrical conductivity
conditions: 318.15 K; 100 kPa; Liquid; Alternating current cell with electrodes
Response body: numeric value in S/m, unit text excluded.

The measured electrical conductivity associated with CC[P+](CC)(CC)CCOC.O=S(=O)([N-]S(=O)(=O)C(F)(F)F)C(F)(F)F reads 0.719

// sample CCCC[N+]1(C)CCCCC1.O=S(=O)([N-]S(=O)(=O)C(F)(F)F)C(F)(F)F , its electrical conductivity was 0.337

Noted for CCCC[N+]1(C)CCCC1.O=S(=O)([N-]S(=O)(=O)C(F)(F)F)C(F)(F)F : its electrical conductivity reads 0.772

Consider the additional compound presented here.
Entry under test: CCCCC[P+](CC)(CC)CC.O=S(=O)([N-]S(=O)(=O)C(F)(F)F)C(F)(F)F . Its electrical conductivity was 0.435

----------
conditions: 373.15 K; 100 kPa; Liquid; Vibrating tube method
measured property: mass density (kg/m3)
Write the number in kg/m3 without appending the unit.

// below: answered compounds
Form field mass density, entry CC[P+](CC)(CC)CCOC.O=S(=O)([N-]S(=O)(=O)C(F)(F)F)C(F)(F)F : 1311

According to the records, this compound CCCCC[P+](CC)(CC)CC.O=S(=O)([N-]S(=O)(=O)C(F)(F)F)C(F)(F)F displays mass density of 1241

Lab note: CCCC[N+]1(C)CCCC1.O=S(=O)([N-]S(=O)(=O)C(F)(F)F)C(F)(F)F gave mass density of 1330

Now for a further compound.
// field: mass density; key: CCCC[N+]1(C)CCCCC1.O=S(=O)([N-]S(=O)(=O)C(F)(F)F)C(F)(F)F ; value = 1319

----------
settings: 324.15 K; 100 kPa; Liquid; Alternating current cell with electrodes
measured property: electrical conductivity
Kindly report the value followed by its unit.

electrical conductivity in this record for CCCCC[P+](CC)(CC)CC.O=S(=O)([N-]S(=O)(=O)C(F)(F)F)C(F)(F)F : 0.521 S/m

***
The recorded electrical conductivity for entry CC[P+](CC)(CC)CCOC.O=S(=O)([N-]S(=O)(=O)C(F)(F)F)C(F)(F)F equals 0.848 S/m

// electrical conductivity lookup, compound = CCCC[N+]1(C)CCCCC1.O=S(=O)([N-]S(=O)(=O)C(F)(F)F)C(F)(F)F , result: 0.424 S/m

// recorded electrical conductivity for CCCC[N+]1(C)CCCC1.O=S(=O)([N-]S(=O)(=O)C(F)(F)F)C(F)(F)F : 0.924 S/m

----------
conditions: 361.15 K; 100 kPa; Liquid; Vibrating tube method
Below, each of the compounds is paired with its reported mass density value.
Answer format: numeric, kg/m3 implied, no suffix.

Some compounds with recorded mass density:
Lookup result for CCCCC[P+](CC)(CC)CC.O=S(=O)([N-]S(=O)(=O)C(F)(F)F)C(F)(F)F ; measured mass density: 1251

# mass density (compound: CCCC[N+]1(C)CCCCC1.O=S(=O)([N-]S(=O)(=O)C(F)(F)F)C(F)(F)F ) is 1329

// CCCC[N+]1(C)CCCC1.O=S(=O)([N-]S(=O)(=O)C(F)(F)F)C(F)(F)F : mass density value = 1340

Continuing:
Lookup result for CC[P+](CC)(CC)CCOC.O=S(=O)([N-]S(=O)(=O)C(F)(F)F)C(F)(F)F ; measured mass density: 1322

----------
details: 341.15 K; 100 kPa; Liquid; Vibrating tube method
measured property: mass density (kg/m3)
Give a bare numeral; the unit kg/m3 is implied.

Worked cases, answers included:
Looking up CCCC[N+]1(C)CCCC1.O=S(=O)([N-]S(=O)(=O)C(F)(F)F)C(F)(F)F , I see its mass density listed as 1357

Value of measured mass density for the entry CCCCC[P+](CC)(CC)CC.O=S(=O)([N-]S(=O)(=O)C(F)(F)F)C(F)(F)F : 1268

Form: molecule = CCCC[N+]1(C)CCCCC1.O=S(=O)([N-]S(=O)(=O)C(F)(F)F)C(F)(F)F ; mass density = 1345

Continue with the molecule presented below.
Form: molecule = CC[P+](CC)(CC)CCOC.O=S(=O)([N-]S(=O)(=O)C(F)(F)F)C(F)(F)F ; mass density = 1339

----------
The reader will find reported viscosity values listed item by item below.
conditions: 298.15 K; 100 kPa; Liquid; Concentric cylinders viscometry
Expressed in mPa·s, but write only the number.

Reference set (3 entries):
Looking up CCCCC[P+](CC)(CC)CC.O=S(=O)([N-]S(=O)(=O)C(F)(F)F)C(F)(F)F , I see its viscosity listed as 85.3

viscosity for CCCC[N+]1(C)CCCC1.O=S(=O)([N-]S(=O)(=O)C(F)(F)F)C(F)(F)F is 77.76

In plain terms, CC[P+](CC)(CC)CCOC.O=S(=O)([N-]S(=O)(=O)C(F)(F)F)C(F)(F)F has a documented viscosity of 48.14

Next, consider the following compound.
viscosity reading for CCCC[N+]1(C)CCCCC1.O=S(=O)([N-]S(=O)(=O)C(F)(F)F)C(F)(F)F : 188.9

----------
conditions: 330.15 K; 100 kPa; Liquid; Alternating current cell with electrodes
measured property: electrical conductivity
Remember to put the unit after the number in your answer.

Sure, the documented electrical conductivity for CC[P+](CC)(CC)CCOC.O=S(=O)([N-]S(=O)(=O)C(F)(F)F)C(F)(F)F is 0.987 S/m

Documented electrical conductivity of CCCCC[P+](CC)(CC)CC.O=S(=O)([N-]S(=O)(=O)C(F)(F)F)C(F)(F)F : 0.612 S/m

GET /value?item= CCCC[N+]1(C)CCCC1.O=S(=O)([N-]S(=O)(=O)C(F)(F)F)C(F)(F)F &field=electrical conductivity returns 1.08 S/m

get_value(item= CCCC[N+]1(C)CCCCC1.O=S(=O)([N-]S(=O)(=O)C(F)(F)F)C(F)(F)F , readout=electrical conductivity) returns 0.519 S/m

----------
settings: 312.15 K; 100 kPa; Liquid; Concentric cylinders viscometry
measured property: viscosity (mPa·s)
Number only, in mPa·s; omit the unit.

// field: viscosity; key: CCCC[N+]1(C)CCCC1.O=S(=O)([N-]S(=O)(=O)C(F)(F)F)C(F)(F)F ; value = 43.41

More entries:
// sample CC[P+](CC)(CC)CCOC.O=S(=O)([N-]S(=O)(=O)C(F)(F)F)C(F)(F)F , its viscosity was 28.1

Please fill in: viscosity reported for CCCCC[P+](CC)(CC)CC.O=S(=O)([N-]S(=O)(=O)C(F)(F)F)C(F)(F)F = 45.42

Reported viscosity ( CCCC[N+]1(C)CCCCC1.O=S(=O)([N-]S(=O)(=O)C(F)(F)F)C(F)(F)F ) = 88.67

----------
conditions: 300.15 K; 100 kPa; Liquid; Vibrating tube method
measured property: mass density (kg/m3)
// note: answer is a bare numeric in kg/m3

Solved entries (count: 3):
Reported mass density ( CCCC[N+]1(C)CCCCC1.O=S(=O)([N-]S(=O)(=O)C(F)(F)F)C(F)(F)F ) = 1380

Query CC[P+](CC)(CC)CCOC.O=S(=O)([N-]S(=O)(=O)C(F)(F)F)C(F)(F)F yields mass density of 1376

Entry CCCCC[P+](CC)(CC)CC.O=S(=O)([N-]S(=O)(=O)C(F)(F)F)C(F)(F)F , mass density reported as 1302

***
mass density reported for this compound CCCC[N+]1(C)CCCC1.O=S(=O)([N-]S(=O)(=O)C(F)(F)F)C(F)(F)F : 1393

----------
compounds and their reported viscosity
conditions: 330.15 K; 100 kPa; Liquid; Concentric cylinders viscometry
Give your result in mPa·s as a bare value.

So, CCCC[N+]1(C)CCCCC1.O=S(=O)([N-]S(=O)(=O)C(F)(F)F)C(F)(F)F ? Its viscosity was 41.12

get_value(item= CC[P+](CC)(CC)CCOC.O=S(=O)([N-]S(=O)(=O)C(F)(F)F)C(F)(F)F , readout=viscosity) returns 16.01

Data point: CCCC[N+]1(C)CCCC1.O=S(=O)([N-]S(=O)(=O)C(F)(F)F)C(F)(F)F ; viscosity = 23.69

Please examine the following record next.
For this compound ( CCCCC[P+](CC)(CC)CC.O=S(=O)([N-]S(=O)(=O)C(F)(F)F)C(F)(F)F ), measured viscosity is 23.5

----------
settings: 300.15 K; 100 kPa; Liquid; Concentric cylinders viscometry
Quick list: viscosity per entry.
Give the number; mPa·s is assumed, so skip it.

Use the examples below as a reference point.
The recorded viscosity for CC[P+](CC)(CC)CCOC.O=S(=O)([N-]S(=O)(=O)C(F)(F)F)C(F)(F)F is 44.28

viscosity reading for CCCC[N+]1(C)CCCCC1.O=S(=O)([N-]S(=O)(=O)C(F)(F)F)C(F)(F)F : 168

For record CCCCC[P+](CC)(CC)CC.O=S(=O)([N-]S(=O)(=O)C(F)(F)F)C(F)(F)F the listed viscosity is 77.43

Turning to the following molecule.
Reported viscosity of CCCC[N+]1(C)CCCC1.O=S(=O)([N-]S(=O)(=O)C(F)(F)F)C(F)(F)F : 71.11
